Quick reference for protein stability index among some variants
B1: VPS39 (parent)
chain: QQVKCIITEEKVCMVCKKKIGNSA

- Variants of: B1
- Protocol: protein stability index of a GFP-peptide fusion (GPS, HEK-293T) (PSI 1-6); higher = more stable;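 also: lentivirally expressed fusions sorted by FACS into six bins by GFP to DsRed ratio, PSI derived from sequencing read proportions per bin multiplied by bin number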
- Assay Conditions: c terminus: a fixed tail appended
Lab note: jot down the number only; don't add units.

Worked set:
QQEKCIITEEKVCMVCKKKIGNSA [V3E] :: 3.47
QQVKCIHTEEKVCMVCKKKIGNSA [I7H] :: 4.39
QHVKCIITEEKVCMVCKKKIGNSA [Q2H] :: 3.05

[ask] Determine from records and report protein stability index for QQVKCQITEEKVCMVCKKKIGNSA [I6Q]
[reply] 3.13

[ask] Determine from records and report protein stability index for YQVKCIITEEKVCMVCKKKIGNSA [Q1Y]
[reply] 1.64

[ask] Determine from records and report protein stability index for QQVKCIITEEKVCMVCKKKICNSA [G21C]
[reply] 3.19

Origin of measurements: the supplement of paper PMC10567573
